assay: yeast display, Sf9 membrane polyspecificity reagent, FACS + sequencing; frameworks hold sequencing errors
assay.metric: polyreactivity (PSR sort gate)

1) QVQLVESGGGLVQAGGSLRLSCAASGSTFGEYAMGWYRQAPGKERELVAVITWRDDSTYYADSVKGRFTISRDNAKNTVYLQMNSLKPEDTAVYYCNADIYQGNAGYIEVGTFGEYDYWGQGTQVTVSS	low polyreactivity
2) QVQLVESGGGLVQAGGSLRLICAASGRIFSTYAMGWYRQAPGKERELVAAINKIGGSTYYADSVKGRFTISRDNAKNTVYLQMNSLKPEDTAVYYCAADAPYYPVRRYYYWGQGTQVTVSS	low polyreactivity
3) QVQLVESGGGLVQAGGSLRLTCAASGRTFRNYAMGWYRQAPGKEREMVAAISRSGGITYYADSVKGRFTISRDNAKNTVYLQMNSLKPEDTAVYYCAARHSYQGPGTYPMYYWGQGTQVTVTS	high polyreactivity
4) QVQLVESGGGLDQAGGSLRLSCAASGSTFWVNTMGWYRQAPGKERELVAGITSNGGSTSYADSVKGRFTISRDNAKNSVYLQMNSLKREDTAVYYCNADTYPDYWAYLYDYWGQGTQVTVSS	low polyreactivity
5) QVQLVESGGGLVQAGGSLRLSCAASGIIFRVYAMGWYRQAPGKERELVASITDRGTRTYYADSVKGRFTISRDNAKNTVYLQMNSLKPEDTAVYYCADEPNYLYWGFFSVGYDYWGQGTQVTVSS	high polyreactivity
6) QVQLVESGGGLVQAGGSLRLSCAASGRTFVTYAMGWYRQAPGKEREFVASISSDSGNTYYADSVKGRFTISRDNAKNTLYFQMNSLKPEDTAVYYCARRKVRYWSYPAAHYYWGQGTQVTVSS	low polyreactivity
7) QVHLGETGGGLVQAGGSLRLSCAASGSIFSSYAMGWYRQAPGKETELVATITRGGRTSYADSVKGRFTISRDNAKNTVYLQMNSLKPEDTAVDYCAADLYDNVGEFNYWGEGTQVTVSS	low polyreactivity
8) QVQLVESGGGLVQAGGSLRLSCSASGNIIRKYAMGWYRQAPGKEREFVAAISSSGGRTYYADSVKGRFTISRDNAKNTVYLQMNSLKPEDTAVYYCAKDPYGRLQPRPRFGYWGQGTQVTVSS	high polyreactivity
9) QVQLVESGGGLVQAGGSLRLSCAASGRTFYPYVMGWYRQAPGKERELVARIRWSGSSTYYADSVKGRFTISRDNAKNTVYLQMNSLKPEDTAVYYCNARPSWYVFGSSVHSGMGYWGQGTQVTVSS	high polyreactivity
10) QVQLVESGGGLVQAGGSLRLSSAASGRTFSRYVMGWSRQAPGKERELVATISRSGGSTFYADSVKGRFTISRDNAKNTVYLQMNSLKPEDTAVYYCNKKVQGYQVTYGYWGQGTQVTVSS	high polyreactivity
11) QVQLVESGGGLVQAGGSLRLSCAASGRTFYFYAMGWYRQAPGKERELVAGISWRGVSTYYADSVKGRFTISRDNAKNTVYLQMNSLKPEDTAVYYCAADIGRHTDNYDPRYDYWGQGTQVTVSS	low polyreactivity

###

assay: yeast display, Sf9 membrane polyspecificity reagent, FACS + sequencing; frameworks hold sequencing errors
assay.metric: polyreactivity (PSR sort gate)

1) QVQLVESGGGLVQAGGSLRLSCAASGIIFVYYTMGWYRQAPGKERELVAAITSGGSTYYADSVKGRFTISRDNAKNTVYVQMNSLKPEDTAVYYCAAVGRPPYAGDRGYWGQGTQVTVSS	high polyreactivity
2) QVQLVESGGGLVQAGGSLRLSCASSGFTFSIYAMGWYRQAPGKERELVAAISSSGGITYYADAVKGRFTISRDNAKNTVYLQMKSLKPEDTAVYYWNKYFKTFYVSYLHDYWGQGTQVSVSS	high polyreactivity
3) QVQLVESGGGLVQAGGSLRLSCAASGSTFVQNAMGWYRQAPGKERELVAAISLRGGSTYYADSVKGRFTISRDNAKNTVYLQMNSLKPEDTAVYYCAADVSQRDGSVRGYDSWGQDTQVTVSS	high polyreactivity
4) QVQLVESGGGLVQAGGSLRLSCAASGNTFVPYAMGWYRQAPGKEREFVAAISSTSGSTYYADSVKGRFTISRDNAKNTVYLQMNSLTPEDTAVYYCAAANHKCSRMDYWGQGTQVTVSS	high polyreactivity
5) QVQLVESGGGLVQAGGSLRLSCAASGRILRRNTMGWYRQAPGKERELVATITRGGGNTYADSVKGRFTISRDNAKNTVYLQMNSLKPEDTAVYYCARAYGSYDYWGQGTQVTVSS	high polyreactivity
6) QVQLVESGGGLVQAGGSLRLSCAASGPTLRSYAMGWYRQAPGKERELVAAITRASGARTFYADSVKGRFTISRDSAKNTVYLQMNSLKPEDSAGYYCTAVGRSDLFEYWGQGTQVTVSS	high polyreactivity
7) QVQLVESGGGLVQAGGSLRLSCAASGITFRGNVMGWYRQAPGKERELVAAISGSSGRTYYADSVKGRFTISRDNAKNTVYLQMNSLKPEDTAVYYCAAYYGTKYDYWGQGTQVTVSS	high polyreactivity
8) QVQLVESGGGLVQAGGSLRLSCAASGRTFRGNAMGWYRQAPGKERELVAAIRWNGGSTYYADSVKGRFTISRDNAKNTVYLQMNSLKPEDTAVYYCAVLRLDYWGQGTQVTVSS	high polyreactivity
9) QVQLVESGGGLVQAGGSLRLSCAASGRTFLWYAMGWYRQAPGKERELVAAITTAGSTYYADSVKGRFTISRDNAKNTVYLQMNSLKPEDTAVYYCNRLTYAYPPPVLGVGHDSWGQGTQVTVSS	low polyreactivity
10) QVQLVESGGRLVQAGGSLRLSCAASGLIFRRNAMGWYRQAPGKERELVSAISRSSGSTYYADSVKGRFTISRDYAKNSVYFHMNSLKPDDTAVYYCDAGYRAGPGYGMYSWGQGTQVTVSS	high polyreactivity
11) QVQLVESGGGLVQAGGSLRLSCAASGSIYYRNAMGSYRQAPGKERELVAAISSTGSTYYADSVKGRFTISRDNAKNTVYLQMNSMKPEDTAVYYCAARQGYRSYRRYDSWGQGTQVTVSS	high polyreactivity
12) QVQLVESGGGLVQAGGSLRLSCAASGRIQDINAMGWYRQAPGKERELVAAISYGGGTTYYADSVKGRFTISRDNAKNTVYLQMNSLKPEDTAVYYCAKDGYFPEFDYWGQGTQVTVSS	high polyreactivity
13) QVQLVESGGGLVQAGGSLRLSCAASGRTIGPYAMGWYRQAPRKERELVAAISWSVGSTYYADSVKGRFTISRDNAKNTVYLQMNSLKPVDTAVYFCGAVYYSHVYYWGQGTQVTVSS	high polyreactivity
14) QVQLVESGGGLVQAGGSLRLSCAASGFIFWYYAMGWYRQAPGKERELVATITRGGSTYYADSVKGRFTISRDNAKNTFYLQMNSLKPEDTAVYYCNAVRPKIYDYWGQGTQVTVSS	high polyreactivity
15) QVKLVESGGGLVQAGGSLRLSCAASGSIFRYYAMGWYRQAPGKERELVAAMTASGGRTHYADSVKGRFTISRDNAKNTVYLQMNSLKLEDTAVYYCAADLYYAWYWKQHYDYCGQGTQVTVSS	high polyreactivity
16) QVQLVESGGGLVQAGGSLRLSCAASGSTFYPYAMGWYRQAPGKERELVAAISSGGSTYYADSVKGRFTISRDNAKNTVYLQMNSLKPEDTAVYYCAADFYYAYYWGQGTEVTVSS	low polyreactivity
17) QVQLVESGGGLVQAGGSLRLSCAASGSTFAYNAMGWYRQAPGKERELVASISQSGVSTYYADSVKGRFTISRDNAKNTVYLQMNSLKPEDTAVYYCNTEIYYRSYEDDYWGQGSQVTVSS	low polyreactivity
18) QVQLVESGGGLVHAGGSLRLSCAASGSIFTKYVMGWYRQAPGKERELVAAITYSGGNTYYADSVKGRFTISRDNAKNTVYFQMNSLKPEDTAVYYCAAKSSAHRGGYWGQGTQVTVSS	high polyreactivity
19) QVQRVESGGGLVQAGGSLRISCAASGSTFITYAMGWYRQERGKERELVAASRWSGGGTYYADSVKGRFTISRDNAKNTVYVQMNSLKPEDTAVYYCAADHFNYTTGRDYWGQGTQVTVSS	low polyreactivity
20) QVQLVESGGGLVQAGGSLRLSCAASGSTFYIYAMGWYRQAPGKERELVARISGSGGSTYYADSVKGRFTISRDNAKNTVELQMNSLKPEDTAVYYCAADDIYKYYQYYAFPYYRYDYWGQGTQVTVSS	low polyreactivity
21) QVQLVDSGGGLVQAGGSLRLSCPASGRIFSWYAMGWYRQAPGKERELVATISSTGGSTYYADSVKGRFTISRDNAKNTVYLQMNSLKAEHTAVYYCNAVVYGIFLYAWYDYWGQGTQVTVSS	low polyreactivity
